Values were extracted from patent US20220340597A1.

The listing below reports IC50 for molecules tested on human TLR8 (Homo sapiens, UniProt Q9NR97).
Sequence (Q9NR97 27-1041): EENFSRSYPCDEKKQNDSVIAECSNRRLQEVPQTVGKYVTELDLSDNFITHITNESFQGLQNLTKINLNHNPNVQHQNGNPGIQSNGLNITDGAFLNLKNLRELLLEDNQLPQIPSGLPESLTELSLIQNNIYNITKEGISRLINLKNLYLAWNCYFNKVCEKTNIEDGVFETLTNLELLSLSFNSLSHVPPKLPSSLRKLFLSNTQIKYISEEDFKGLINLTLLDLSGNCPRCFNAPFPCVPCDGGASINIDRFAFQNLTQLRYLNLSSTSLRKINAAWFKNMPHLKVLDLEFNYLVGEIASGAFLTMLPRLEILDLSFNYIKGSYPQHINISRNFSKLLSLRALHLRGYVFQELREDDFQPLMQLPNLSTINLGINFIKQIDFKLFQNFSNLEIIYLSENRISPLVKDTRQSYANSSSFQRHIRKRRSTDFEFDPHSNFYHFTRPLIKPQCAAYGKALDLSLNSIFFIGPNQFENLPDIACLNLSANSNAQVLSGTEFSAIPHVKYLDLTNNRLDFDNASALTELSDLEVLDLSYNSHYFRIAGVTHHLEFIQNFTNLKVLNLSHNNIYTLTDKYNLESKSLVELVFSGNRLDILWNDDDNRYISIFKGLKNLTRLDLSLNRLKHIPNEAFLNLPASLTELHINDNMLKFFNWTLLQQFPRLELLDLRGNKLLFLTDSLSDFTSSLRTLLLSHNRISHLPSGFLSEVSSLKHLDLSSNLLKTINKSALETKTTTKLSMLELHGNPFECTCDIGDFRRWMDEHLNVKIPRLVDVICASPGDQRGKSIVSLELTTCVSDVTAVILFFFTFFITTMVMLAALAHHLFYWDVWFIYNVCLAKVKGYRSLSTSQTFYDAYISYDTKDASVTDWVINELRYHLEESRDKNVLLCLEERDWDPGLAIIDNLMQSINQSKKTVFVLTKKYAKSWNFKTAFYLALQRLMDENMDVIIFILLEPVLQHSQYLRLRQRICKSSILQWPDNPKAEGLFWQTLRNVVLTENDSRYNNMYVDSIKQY
Readout Kind: IC50 (nM)

[2H]c1ccc2c(N3C[C@@H]4CN(c5ccc(CCN6C[C@H](OC)[C@@H](N)C6)cn5)CCN4[C@H](C)C3)ccc(C#N)c2n1 [Example 109] :: 4
C[C@@H]1CN(c2ccc(C#N)c3ncccc23)C[C@@H]2CN(c3cc(N4CCNCC4)ccn3)CCN21 [Example 34] :: 14
[2H]c1ccc2c(N3C[C@@H]4CN(c5ncc(N6C[C@@H](N)[C@H](OC)C6)cc5C)CCN4[C@H](C)C3)ccc(C#N)c2n1 [Example 99] :: 2

A = C[C@@H]1CN(c2ccc(C#N)c3ncccc23)C[C@@H]2CN(CCc3ccc(N4C[C@H]5NCCO[C@@H]5C4)nc3)CCN21 [Example 124]
B = [2H]c1ccc2c(N3C[C@@H]4CN(c5ccc([C@@H]6CNCCO6)cc5)CCN4[C@@H](C)C3)ccc(C#N)c2n1 [Example 106]
Exam item: I'm curious, which of these has a smaller IC50 number: A or B ? Kindly give the label for the entry you pick.
Marked response: B
(B: 4 nM, A: 51 nM)

P = CO[C@@H]1CN(c2nccc(N3CCN4[C@@H](C3)CN(c3ccc(C#N)c5ncccc35)C[C@H]4C)n2)C[C@H]1N [Example 36]
Q = CO[C@@H]1CN(c2ccc(CCN3CCN4[C@@H](C3)CN(c3ccc(C#N)n5ncc(F)c35)C[C@H]4C)cc2)C[C@H]1N [Example 66]
Exam item: I'm curious, which of these has a smaller IC50 number: P or Q ? Kindly give the label for the entry you pick.
Marked response: P
(P: 15 nM, Q: 39 nM)

###

biological target: human TLR7 (Homo sapiens); experiment: HEK293-Blue-hTLR-7 cells assay; settings: HEK293-Blue-hTLR7 cells, R848 stimulation, 20 hrs, SEAP reporter; read-out: HEK/hTLR7 IC50
Sequence (Q9NYK1 27-1049): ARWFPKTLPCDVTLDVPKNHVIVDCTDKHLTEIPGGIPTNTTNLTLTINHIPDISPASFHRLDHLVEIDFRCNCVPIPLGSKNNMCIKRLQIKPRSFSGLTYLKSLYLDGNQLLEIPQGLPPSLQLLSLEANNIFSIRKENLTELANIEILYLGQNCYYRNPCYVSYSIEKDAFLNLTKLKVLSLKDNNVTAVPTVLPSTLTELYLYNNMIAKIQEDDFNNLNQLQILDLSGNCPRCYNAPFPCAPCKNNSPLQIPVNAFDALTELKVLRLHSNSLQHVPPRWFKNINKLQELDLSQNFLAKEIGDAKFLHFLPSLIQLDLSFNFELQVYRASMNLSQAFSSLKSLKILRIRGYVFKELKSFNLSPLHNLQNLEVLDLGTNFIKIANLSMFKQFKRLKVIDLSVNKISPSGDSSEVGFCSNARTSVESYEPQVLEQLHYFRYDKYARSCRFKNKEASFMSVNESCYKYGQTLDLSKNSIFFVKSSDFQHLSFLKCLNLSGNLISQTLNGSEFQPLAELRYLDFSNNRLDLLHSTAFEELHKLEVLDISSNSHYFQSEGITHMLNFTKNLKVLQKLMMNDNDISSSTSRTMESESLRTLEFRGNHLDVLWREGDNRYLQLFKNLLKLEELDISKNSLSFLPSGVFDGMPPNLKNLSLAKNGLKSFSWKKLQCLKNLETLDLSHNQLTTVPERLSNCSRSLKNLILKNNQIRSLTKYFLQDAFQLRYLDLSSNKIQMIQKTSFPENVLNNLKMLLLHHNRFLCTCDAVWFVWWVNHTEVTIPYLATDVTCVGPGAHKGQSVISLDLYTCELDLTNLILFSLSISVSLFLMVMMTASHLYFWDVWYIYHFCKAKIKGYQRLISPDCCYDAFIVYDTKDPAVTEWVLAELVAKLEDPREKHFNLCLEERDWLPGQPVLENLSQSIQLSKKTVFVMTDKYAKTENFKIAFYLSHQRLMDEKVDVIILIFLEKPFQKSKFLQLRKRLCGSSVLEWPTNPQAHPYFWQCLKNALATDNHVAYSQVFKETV
Readout Kind: IC50 (nM)

a = C[C@@H]1CN(c2ccc(C#N)c3ncccc23)C[C@@H]2CN(c3nccc4c3CCNC4)CCN21
b = C[C@@H]1CN(c2ccc(C#N)c3ncccc23)C[C@@H]2CN(CCc3ccc(N4CC5(CNCCO5)C4)nc3)CCN21
Exam item: Short answer wanted: higher IC50, a or b ? Kindly give the label for the entry you pick.
Marked response: b
(b: 9 nM, a: 6 nM)

###

biological target: human TLR9 (Homo sapiens, UniProt Q9NR96); construct: host or cells: HEK293 (HEK-Blue hTLR9); experiment: HEK293-Blue-hTLR-9 cells assay; assay type: cell-based; details: HEK293-Blue-hTLR9 cells, ODN2006 stimulation, 20 hrs, SEAP reporter; read-out: HEK/hTLR9 IC50
Sequence (Q9NR96 26-1032): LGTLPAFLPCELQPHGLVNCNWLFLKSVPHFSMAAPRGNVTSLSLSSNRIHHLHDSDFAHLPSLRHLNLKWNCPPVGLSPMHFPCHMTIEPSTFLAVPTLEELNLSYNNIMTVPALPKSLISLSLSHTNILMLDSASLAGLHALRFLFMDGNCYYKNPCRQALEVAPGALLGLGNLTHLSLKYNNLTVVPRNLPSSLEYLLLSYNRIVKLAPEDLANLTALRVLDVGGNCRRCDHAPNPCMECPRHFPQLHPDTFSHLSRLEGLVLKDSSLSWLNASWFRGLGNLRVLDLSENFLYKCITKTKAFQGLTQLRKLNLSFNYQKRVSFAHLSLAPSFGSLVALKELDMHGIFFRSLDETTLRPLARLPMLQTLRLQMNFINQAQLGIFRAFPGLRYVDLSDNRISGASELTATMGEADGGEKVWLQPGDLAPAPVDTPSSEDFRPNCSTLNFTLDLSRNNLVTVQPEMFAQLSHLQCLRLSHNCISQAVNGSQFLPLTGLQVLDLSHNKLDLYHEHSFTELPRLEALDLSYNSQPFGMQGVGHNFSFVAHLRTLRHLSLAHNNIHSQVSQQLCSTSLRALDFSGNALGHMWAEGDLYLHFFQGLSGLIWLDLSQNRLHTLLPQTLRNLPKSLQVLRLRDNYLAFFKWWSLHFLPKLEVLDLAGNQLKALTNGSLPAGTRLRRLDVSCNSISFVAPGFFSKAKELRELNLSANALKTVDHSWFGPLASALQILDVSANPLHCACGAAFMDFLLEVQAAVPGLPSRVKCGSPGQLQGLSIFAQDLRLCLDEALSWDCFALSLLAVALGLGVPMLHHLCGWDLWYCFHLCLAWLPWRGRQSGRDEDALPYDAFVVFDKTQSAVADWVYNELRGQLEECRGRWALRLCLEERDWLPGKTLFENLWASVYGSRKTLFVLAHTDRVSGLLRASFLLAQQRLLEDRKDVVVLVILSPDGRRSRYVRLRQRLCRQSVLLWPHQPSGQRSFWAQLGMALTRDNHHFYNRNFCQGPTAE
Readout Kind: IC50 (nM)

Example entries and their recorded answers appear below.
[2H]c1ccc2c(N3C[C@@H]4CN(c5ncc(C(=O)N6CC7(CN(C)C7)C6)cc5C)CCN4[C@H](C)C3)ccc(C#N)c2n1 [Example 102] :: 154
[2H]c1ccc2c(N3C[C@@H]4CN(c5ccc(N6CC7CCC(C6)N7)nc5)CCN4[C@@H](C)C3)ccc(C#N)c2n1 [Example 112] :: 82
Cc1cc(N2CCNCC2)cnc1N1CCN2[C@@H](C1)CN(c1cc(=O)n(C)c3ncccc13)C[C@H]2C [Example 93] :: 186

A = [2H]c1ccc2c(N3C[C@@H]4CN(Cc5ccc(N6CC(C)(N)C6)nc5C)CCN4[C@H](C)C3)ccc(C#N)c2n1 [Example 79]
B = [2H]c1ccc2c(N3C[C@@H]4CN(c5ncc(N6C[C@@H]7C[C@H]6CN7)cc5C)CCN4[C@H](C)C3)ccc(C#N)c2n1 [Example 95]
C = CO[C@@H]1CN(c2ccc(CCN3CCN4[C@@H](C3)CN(c3ccc(C#N)c5ncccc35)C[C@H]4C)cc2)C[C@H]1N [Example 26]
Exam item: Put the entries in order of IC50, starting with the largest number. Please express your ranking as an ordered list of the labels.
Marked response: B, C, A
